What % inhibition was measured for each of the following?
molecular target: T1, wild type full length EGFR purified from A431 cells (human, UniProt P00533 25-1210); assay: competition ELISA, competitor Ab-10; parameters: concentration or dose not given beside the values
T1 construct: mature; Bought; coated on ELISA wells; also called full length EGFR receptor antigen; Sigma E3641
Only the number, expressed in %, is required.

Query string: GET /values?readout=% inhibition&item= antibody 1261 (antibody, human IgG1, kappa, V domains shown, Chimeric IgG1 kappa) VH: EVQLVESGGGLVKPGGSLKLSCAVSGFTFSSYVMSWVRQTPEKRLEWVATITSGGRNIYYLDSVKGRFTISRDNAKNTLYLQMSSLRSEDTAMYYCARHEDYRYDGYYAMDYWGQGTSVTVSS VL: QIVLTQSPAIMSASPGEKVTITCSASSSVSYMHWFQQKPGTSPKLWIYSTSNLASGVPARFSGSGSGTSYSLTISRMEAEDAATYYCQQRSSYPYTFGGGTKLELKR
Result string: 13

Query string: GET /values?readout=% inhibition&item= antibody 1284 (antibody, human IgG1, kappa, V domains shown, Chimeric IgG1 kappa) VH: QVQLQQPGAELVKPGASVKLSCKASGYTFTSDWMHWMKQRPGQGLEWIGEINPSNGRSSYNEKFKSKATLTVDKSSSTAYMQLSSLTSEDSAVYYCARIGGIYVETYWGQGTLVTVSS VL: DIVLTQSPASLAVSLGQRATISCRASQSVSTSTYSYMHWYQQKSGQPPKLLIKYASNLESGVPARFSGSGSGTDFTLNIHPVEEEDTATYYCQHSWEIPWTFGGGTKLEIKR
Result string: 30

Query string: GET /values?readout=% inhibition&item= antibody 992 (antibody, human IgG1, kappa, V domains shown, Chimeric mouse/human IgG1 kappa; the VL entry includes the human kappa constant region) VH: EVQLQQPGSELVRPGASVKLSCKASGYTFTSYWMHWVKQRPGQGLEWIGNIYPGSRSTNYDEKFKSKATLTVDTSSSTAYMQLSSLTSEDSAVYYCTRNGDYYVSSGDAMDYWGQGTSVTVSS VL: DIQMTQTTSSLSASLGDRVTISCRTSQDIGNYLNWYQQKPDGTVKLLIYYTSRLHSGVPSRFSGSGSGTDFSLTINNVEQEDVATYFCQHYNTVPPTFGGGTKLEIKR
Result string: -14

Query string: GET /values?readout=% inhibition&item= antibody 1344 (antibody, human IgG1, kappa, V domains shown, Chimeric IgG1 kappa) VH: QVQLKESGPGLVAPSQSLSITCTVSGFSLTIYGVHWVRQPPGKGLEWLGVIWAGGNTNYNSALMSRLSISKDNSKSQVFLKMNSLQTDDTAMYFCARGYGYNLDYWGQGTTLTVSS VL: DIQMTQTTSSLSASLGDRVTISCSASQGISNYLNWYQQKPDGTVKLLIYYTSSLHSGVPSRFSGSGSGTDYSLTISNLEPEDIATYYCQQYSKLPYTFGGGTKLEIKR
Result string: 36
